Origin of measurements: ChEMBL document CHEMBL2413072

For each record, write down the corresponding inhibition of growth at 10 µM.
tested on: DU-145; assay: Growth inhibition of human DU145 cells assessed as growth inhibition at 10 uM by sulforhodamine B assay; format: functional; conditions: read-out: GI

Record lookup: for DU-145, what inhibition of growth at 10 µM belongs to COc1cc(/C=C2\C[C@]3(C)[C@H]4CC=C5[C@@H]6CC(C)(C)C[C@@H](O)[C@]6(C(=O)O)CC[C@@]5(C)[C@]4(C)CC[C@H]3C(C)(C)C2=O)ccc1O ? < 10%

Record lookup: for DU-145, what inhibition of growth at 10 µM belongs to CC1(C)C[C@@H](O)[C@]2(C(=O)O)CC[C@]3(C)C(=CC[C@@H]4[C@@]5(C)CC[C@H](O)C(C)(C)[C@@H]5CC[C@]43C)[C@@H]2C1 ? < 10%

Record lookup: for DU-145, what inhibition of growth at 10 µM belongs to CC1(C)C[C@@H](O)[C@]2(C(=O)O)CC[C@]3(C)C(=CC[C@@H]4[C@@]5(C)CCC(=O)C(C)(C)[C@@H]5CC[C@]43C)[C@@H]2C1 ? < 10%
